Data origin: paper PMC3166236

Test: Enzymatic stability in rat intestinal homogenate pH 6.5 at 37 °C
Settings: Sprague-Dawley, pH 6.5, Half-lives, t1/2 Intestinal Homogenate pH 6.5, Rp isomer, rat intestinal homogenate pH 6.5, 37 °C
measured metric: half-life at 0.5 mg/ml (h)
Answers are plain numbers, in h.

# annotated cases, reported half-life at 0.5 mg/ml shown
{"compound": "CC(C)CNC(=O)[C@@H](N)Cc1ccc(OP2(=O)CO[C@@H](Cn3cnc4c(N)ncnc43)CO2)cc1 (mixture of isomers)", "result unit": "h", "half-life at 0.5 mg/ml": 12.8}
{"compound": "CC(C)(C)NC(=O)[C@H](N)Cc1ccc(OP2(=O)CO[C@@H](Cn3ccc(N)nc3=O)CO2)cc1 (stereo partly shown)", "result unit": "h", "half-life at 0.5 mg/ml": 28.9}

Below: the item to evaluate.
Incoming: What value of measured half-life at 0.5 mg/ml is listed for COC(=O)[C@H](N)Cc1ccc(OP2(=O)CO[C@@H](Cn3ccc(N)nc3=O)CO2)cc1 (stereo partly shown) ?
Outgoing: 3.5
